System: guinea pig platelet aggregation
ASSAY_DETAILS: Inhibitory action on guinea pig platelet aggregation (ADP-stimulated PRP)
Format: cell-based
EXPERIMENTAL_CONDITIONS: Cavia porcellus, ADP final concentration 1 μM, in vitro, read-out: Inhibitory effect on platelet aggregation in vitro (IC50) guinea pig
pIC50: −log10 of the molar value.
Below is a list of entries, each paired with its recorded pIC50 value.
VALUE_TYPE: pIC50

1. COC(=O)C[C@H]1C(=O)N(CC(=O)O)CCN1C(=O)CNC(=O)c1ccc(C(=N)N)cc1 [compound 59]    7.25
2. N=C(N)N1CCC(C(=O)NCC(=O)N2CCN(CC(=O)O)C(=O)[C@@H]2CC(=O)O)CC1 [compound 38]    5.02
3. N=C(N)c1ccc(C(=O)NCC(=O)N2CCN(CC(=O)O)C(=O)[C@@H]2Cc2ccccc2)cc1 [compound 61]    6.80
4. NCCc1ccc(C(=O)NCC(=O)N2CCN(CC(=O)O)C(=O)[C@@H]2CC(=O)O)cc1 [compound 46]    6.89
5. NCCc1ccc(C(=O)NCC(=O)N2CCN(CC(=O)O)C(=O)[C@@H]2Cc2ccccc2)cc1 [compound 89]    6.70
6. N=C(N)Nc1ccc(C(=O)N2CCC[C@H]2C(=O)N2CCN(CC(=O)O)C(=O)[C@@H]2CC(=O)O)cc1 [compound 50]    6.46
7. N=C(N)NC[C@H]1CC[C@H](C(=O)NCC(=O)N2CCN(CC(=O)O)C(=O)C2)CC1 [compound 35]    5.28

----------
SYSTEM: GPIIb/IIIa (Homo sapiens, UniProt P05106+P08514)
Construct: Purification of GPIIb/IIIa from HEL Cells; endogenous in cells; ATCC TIB180), human erythroleukemia; GPIIb/IIIa solubilized in Triton X-100, purified and adsorbed on microtiter plates
Sequence (P08514 32-887 limits assumed): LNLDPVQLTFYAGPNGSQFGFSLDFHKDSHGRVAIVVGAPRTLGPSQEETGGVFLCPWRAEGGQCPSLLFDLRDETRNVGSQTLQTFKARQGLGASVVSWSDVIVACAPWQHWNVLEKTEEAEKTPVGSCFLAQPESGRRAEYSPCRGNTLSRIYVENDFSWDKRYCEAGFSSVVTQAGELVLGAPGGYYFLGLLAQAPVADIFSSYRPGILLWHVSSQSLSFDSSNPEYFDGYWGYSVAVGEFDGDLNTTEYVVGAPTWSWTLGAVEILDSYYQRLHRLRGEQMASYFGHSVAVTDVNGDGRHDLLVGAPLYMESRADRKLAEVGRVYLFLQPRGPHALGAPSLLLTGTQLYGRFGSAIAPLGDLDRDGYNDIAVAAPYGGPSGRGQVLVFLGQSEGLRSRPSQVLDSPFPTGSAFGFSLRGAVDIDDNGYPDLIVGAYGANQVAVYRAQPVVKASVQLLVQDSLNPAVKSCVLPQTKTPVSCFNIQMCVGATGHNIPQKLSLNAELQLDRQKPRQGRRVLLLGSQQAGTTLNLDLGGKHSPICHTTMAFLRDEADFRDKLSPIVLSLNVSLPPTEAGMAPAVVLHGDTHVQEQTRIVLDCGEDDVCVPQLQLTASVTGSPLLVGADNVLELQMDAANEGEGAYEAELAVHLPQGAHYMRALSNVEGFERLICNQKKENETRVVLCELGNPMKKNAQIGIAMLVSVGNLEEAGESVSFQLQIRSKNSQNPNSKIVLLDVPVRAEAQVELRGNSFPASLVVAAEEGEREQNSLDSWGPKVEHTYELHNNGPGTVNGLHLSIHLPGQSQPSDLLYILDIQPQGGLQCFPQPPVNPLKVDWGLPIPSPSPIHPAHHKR
Sequence (P08514 891-1039 limits assumed): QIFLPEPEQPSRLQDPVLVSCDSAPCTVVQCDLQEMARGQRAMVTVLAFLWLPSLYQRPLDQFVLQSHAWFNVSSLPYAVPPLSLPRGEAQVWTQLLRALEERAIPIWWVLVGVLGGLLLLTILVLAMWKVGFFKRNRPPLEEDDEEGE
Sequence (P05106 27-788): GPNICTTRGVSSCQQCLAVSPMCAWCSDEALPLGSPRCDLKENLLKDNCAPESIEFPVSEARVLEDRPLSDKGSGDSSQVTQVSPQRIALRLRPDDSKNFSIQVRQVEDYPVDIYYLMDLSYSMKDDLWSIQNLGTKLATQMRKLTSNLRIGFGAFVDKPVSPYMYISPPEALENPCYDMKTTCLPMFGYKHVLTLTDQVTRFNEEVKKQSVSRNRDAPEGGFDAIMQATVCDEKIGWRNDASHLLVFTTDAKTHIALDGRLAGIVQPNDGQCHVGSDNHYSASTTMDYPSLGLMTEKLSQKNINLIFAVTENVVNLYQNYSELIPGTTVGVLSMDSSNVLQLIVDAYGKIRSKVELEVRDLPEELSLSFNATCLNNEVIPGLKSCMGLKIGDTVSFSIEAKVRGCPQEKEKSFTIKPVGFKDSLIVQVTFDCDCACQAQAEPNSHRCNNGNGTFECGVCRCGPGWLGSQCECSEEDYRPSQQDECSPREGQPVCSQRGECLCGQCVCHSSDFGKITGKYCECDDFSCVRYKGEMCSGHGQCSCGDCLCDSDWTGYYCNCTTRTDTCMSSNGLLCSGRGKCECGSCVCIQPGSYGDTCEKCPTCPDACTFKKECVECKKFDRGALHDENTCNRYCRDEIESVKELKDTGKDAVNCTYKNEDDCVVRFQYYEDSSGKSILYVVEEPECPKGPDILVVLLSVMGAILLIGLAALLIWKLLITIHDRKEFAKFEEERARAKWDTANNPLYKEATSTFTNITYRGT
ASSAY_DETAILS: Inhibition of fibrinogen binding to GPIIb/IIIa
EXPERIMENTAL_CONDITIONS: purified GPIIb/IIIa from HEL cells, biotinylated human fibrinogen 1 nM
VALUE_TYPE: IC50 (nM)

1) N=C(N)NC[C@H]1CC[C@H](C(=O)NCC(=O)N2CCN(CC(=O)O)C(=O)[C@@H]2CC(N)=O)CC1    23
2) CN(CC(=O)N1CCN(CC(=O)O)C(=O)[C@@H]1CC(=O)O)C(=O)[C@H]1CC[C@H](CNC(=N)N)CC1    10
3) CCC(C)[C@H]1C(=O)N(CC(=O)O)CCN1C(=O)CNC(=O)c1ccc(NC(=N)N)cc1 (stereo partly shown)    98
4) N=C(N)c1ccc(C(=O)NCC(=O)N2CCN([C@@H](Cc3ccccc3)C(=O)O)C(=O)[C@@H]2CC(=O)O)cc1    6.1

----------
SYSTEM: GPIIb/IIIa (Homo sapiens, UniProt P05106+P08514)
Construct: Purification of GPIIb/IIIa from HEL Cells; endogenous in cells; ATCC TIB180), human erythroleukemia; GPIIb/IIIa solubilized in Triton X-100, purified and adsorbed on microtiter plates
ASSAY_DETAILS: Inhibition of fibrinogen binding to GPIIb/IIIa
EXPERIMENTAL_CONDITIONS: purified GPIIb/IIIa from HEL cells, biotinylated human fibrinogen 1 nM
VALUE_TYPE: log10(IC50) (log10 of the value in nM)

1. NCCc1ccc(C(=O)NCC(=O)N2CCN(CC(=O)O)C(=O)[C@@H]2Cc2ccccc2)cc1    0.56
2. NCCc1ccc(C(=O)NCC(=O)N2CCN(CC(=O)O)C(=O)C2)cc1    0.20
3. NCCc1ccc(C(=O)NCC(=O)N2CCN(CC(=O)O)C(=O)[C@@H]2CCC(=O)O)cc1    0.00
4. CC(C)(C)C(=O)OCOC(=O)CN1CCN(C(=O)CNC(=O)c2ccc(C(=N)N)cc2)[C@@H](Cc2ccccc2)C1=O    0.95
5. N=C(N)c1ccc(CC(=O)NCC(=O)N2CCN(CC(=O)O)C(=O)[C@@H]2CC(=O)O)cc1    0.91
6. N=C(N)NC[C@H]1CC[C@H](C(=O)NCC(=O)N2CCN(CC(=O)O)C(=O)[C@@H]2Cc2ccccc2)CC1    1.51
7. N=C(N)N1CCC(C(=O)NCC(=O)N2CCN(CC(=O)O)C(=O)[C@@H]2CC(=O)O)CC1    1.32

# credit: patent US5294713A
